Where do the numbers come from? From BigSolDB 2.1.

Conditions: in methanol, 311 K
endpoint.name: solubility (mole fraction)
// print number alone

Name the recorded solubility (mole fraction) for NNC(=O)c1ccncc1 .
0.0154

---

Details: in ethyl acetate, 313 K
endpoint.name: solubility (mole fraction)
// print number alone

Name the recorded solubility (mole fraction) for NNC(=O)c1ccncc1 .
0.00251

---

Conditions: in ethyl acetate, 301 K
endpoint.name: solubility (mole fraction)
// print number alone

Name the recorded solubility (mole fraction) for NNC(=O)c1ccncc1 .
0.00159

---

Conditions: in acetone, 308 K
endpoint.name: solubility (mole fraction)
// print number alone

Name the recorded solubility (mole fraction) for NNC(=O)c1ccncc1 .
0.0136

---

Settings: in methanol, 303 K
endpoint.name: solubility (mole fraction)
// print number alone

Name the recorded solubility (mole fraction) for NNC(=O)c1ccncc1 .
0.0114

---

Conditions: in ethanol, 313 K
endpoint.name: solubility (mole fraction)
// print number alone

Name the recorded solubility (mole fraction) for NNC(=O)c1ccncc1 .
0.00887

---

Conditions: in ethanol, 311 K
endpoint.name: solubility (mole fraction)
// print number alone

Name the recorded solubility (mole fraction) for NNC(=O)c1ccncc1 .
0.00816

---

Details: in ethyl acetate, 308 K
endpoint.name: solubility (mole fraction)
// print number alone

Name the recorded solubility (mole fraction) for NNC(=O)c1ccncc1 .
0.00206

---

Conditions: in ethyl acetate, 303 K
endpoint.name: solubility (mole fraction)

Name the recorded solubility (mole fraction) for NNC(=O)c1ccncc1 .
0.00172
